B1: CPEB3 Ribozyme (parent)
chain: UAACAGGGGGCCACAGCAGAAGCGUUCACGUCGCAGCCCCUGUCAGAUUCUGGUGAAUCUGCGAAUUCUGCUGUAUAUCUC

Variants of: B1
PROCEDURE_TEXT: self-cleavage, relative activity (ratio to wild type); higher = more cleavage; in vitro, sequencing
MEASURED_QUANTITY: self-cleavage
Simply state the number, no unit and no words.

Known self-cleavage results, listed for orientation:
A5U C50A ... 1.01
A64G U76A ... 0.95
A35U U60G ... 0.17

Prompt: self-cleavage for G33C U49C ?
Response: 0.12

Prompt: Tell me the measured self-cleavage of U49G U51C , please.
Response: 0.63

Prompt: Consider the variant shown here: U58C U78C What is its recorded self-cleavage?
Response: 0.47

Prompt: Name the recorded self-cleavage for A56G U74C .
Response: 1.12

Prompt: // self-cleavage lookup, key: G36U A45G
Response: 0.22

Prompt: Any idea what its self-cleavage is? The variant is C62U C71U
Response: 0.22

Prompt: Tell me the measured self-cleavage of A56U U58A , please.
Response: 0.31

Prompt: Request the reported self-cleavage associated with U31C U43C
Response: 0.49

Prompt: Look up self-cleavage: A18C C32U
Response: 0.43

Prompt: Entry A35U A47G has what self-cleavage?
Response: 0.48

Prompt: So what's the measured self-cleavage for this one? A21U U26C
Response: 0.29

Prompt: For C32G , what is its reported self-cleavage?
Response: 0.23

Prompt: What value of self-cleavage has been recorded for this entry: C32G A56G
Response: 0.12

Prompt: Consider the variant shown here: G9C A45C What is its recorded self-cleavage?
Response: 0.25

Prompt: Given A64C U72A , state its recorded self-cleavage.
Response: 0.27

Prompt: What measured self-cleavage goes with U54A ?
Response: 1.09

Prompt: Could you share which self-cleavage value was measured for U26G G53A ?
Response: 0.24

Prompt: State the recorded self-cleavage for this entry: A15C C37U
Response: 0.58
